Reference for the values: patent US9115143B2

test system: Aβ38; test: In vivo efficacy B-2a: brain soluble Aβ38 in non-transgenic rodents, ELISA; parameters: species or system mouse; conditions: dose 30 mg/kg oral dosing; brain soluble fraction; untreated animals (Ctrl) set at 100; 30 mg/kg
Each entry below carries its recorded Aβ38 (% vs Ctrl)_Mean.
metric_name: Aβ38 (% vs Ctrl)_Mean

{"compound": "Cc1cc(F)ccc1C1CCCn2nc(-c3cc4cc(C#N)ccc4[nH]3)nc21 (stereo not drawn) [Compound 10]", "measurement": 115}
{"compound": "Cc1cc(F)ccc1C1CCCn2cc(-c3cc4cc(C#N)ccc4[nH]3)nc21 (stereo not drawn) [Compound 4]", "measurement": 141}
{"compound": "COc1c(C#N)ccc2[nH]c(-c3cn4c(n3)C(c3ccc(F)cc3C)OCC4)cc12 (stereo not drawn) [Compound 46]", "measurement": 109}
{"compound": "Cc1cc(F)ccc1C1CCCn2cc(-c3cc4cc(C#N)ccc4[nH]3)nc21 (stereo not drawn) [Compound 64]", "measurement": 122}
{"compound": "Cc1cc(F)ccc1C1CCCn2cc(-c3cc4cc(C#N)ccc4[nH]3)nc21 (stereo not drawn) [Compound 63]", "measurement": 98}
{"compound": "COc1c(C#N)ccc2[nH]c(-c3nc4n(n3)CCOC4c3ccc(F)cc3C)cc12 (stereo not drawn)", "measurement": 88}
{"compound": "Cc1cc(F)ccc1C1CCCn2nc(-c3cc4cc(C#N)ccc4[nH]3)nc21 (stereo not drawn) [Compound 9]", "measurement": 87}
{"compound": "COc1c(C#N)ccc2[nH]c(-c3cn4c(n3)C(c3ccc(F)cc3C)OCC4)cc12 (stereo not drawn) [Compound 47]", "measurement": 87}
{"compound": "Cc1ccccc1C1CCCn2nc(-c3cc4cc(C#N)ccc4[nH]3)nc21 (stereo not drawn)", "measurement": 96}
